target: PDK2 (Homo sapiens); assay: Assay for inhibition of PDK activity, PDK2; format: biochemical; design: made in house; conditions: absence of E2/E3BP core (−); read-out: IC50 for PDK2
MEASURED PROPERTY: IC50 (nM)
Provide the reading as a plain figure in nM.

Give IC50 for the following molecule: O=S(=O)(c1ccc(O)cc1O)N1Cc2cc(O)cc(O)c2C1 [PS10]
800

----------
test system: HeLa cells; details: read-out: IC50 for the growth inhibition of HeLa cells
MEASURED PROPERTY: IC50 (µM)
Provide the reading as a plain figure in µM.

Give IC50 for the following compound: O=S(=O)(c1ccc(O)cc1O)N1Cc2cc(O)cc(O)c2C1 [PS10]
284

----------
experiment: Pharmacokinetic studies in mice after IP dosing; assay type: in vivo; conditions: mouse; 20 mg/kg IP, female CD-1 mice, plasma; read-out: Terminal T1/2
MEASURED PROPERTY: half-life (h)
Provide the reading as a plain figure in h.

Give half-life for the following molecule: O=S(=O)(c1ccc(O)cc1O)N1Cc2ccc(O)cc2C1
1.55

----------
target: PDK2 (Homo sapiens); assay: Isothermal titration calorimetry (ITC), binding to PDK2; parameters: made in house; conditions: ITC; read-out: Kd, nM for PDK2
Kd overview
Provide the reading as a plain figure in nM.

Known results for compounds:
COMPOUND: O=S(=O)(c1ccc(O)cc1O)N1Cc2ccccc2C1
UNITS TEXT: nM
VALUE OBSERVED: 711
//
COMPOUND: O=S(=O)(c1ccc(O)cc1O)N1Cc2cc(O)cc(O)c2C1
UNITS TEXT: nM
VALUE OBSERVED: 239
//
COMPOUND: O=S(=O)(c1ccc(O)cc1O)N1Cc2ccc(O)cc2C1
UNITS TEXT: nM
VALUE OBSERVED: 426

Give Kd for the following compound: O=C(c1cc(Br)c(O)cc1O)N1Cc2ccccc2C1
3570

Give Kd for the following compound: O=C(c1ccc(O)cc1O)N1Cc2ccccc2C1
1830

Give Kd for the following compound: C[C@@H]1C[C@H]2O[C@@H]2/C=C\C=C\C(=O)Cc2c(Cl)c(O)cc(O)c2C(=O)O1 [Radicicol, radicicol, reference compound]
18600

----------
test: Pharmacokinetic studies in mice after IP dosing; assay type: in vivo; settings: mouse; 70 mg/kg IP, male C57BL/6J mice, plasma
MEASURED PROPERTY: Tmax

Give Tmax for the following molecule: O=S(=O)(c1ccc(O)cc1O)N1Cc2cc(O)cc(O)c2C1
10 min

----------
molecular target: PDK2 (Homo sapiens); experiment: biochemical
MEASURED PROPERTY: IC50 (µM)
Provide the reading as a plain figure in µM.

Give IC50 for the following compound: O=S(=O)(c1ccc(O)cc1O)N1Cc2ccc(O)cc2C1
0.07

----------
target: PDK2 (Homo sapiens, UniProt Q15119); test: Isothermal titration calorimetry (ITC), binding to PDK2; design: made in house
# strict inequality: Kd < 300 nM yields met, everything else yields not met

Is Kd of O=C(O)CCCN1CCC(Nc2ccc3c(c2)CN(S(=O)(=O)c2ccc(O)cc2O)C3)CC1 strictly below 300 nM?
not met

----------
Experiment: Pharmacokinetic studies in mice after IP dosing
Assay type: in vivo
Settings: mouse; 70 mg/kg IP, male C57BL/6J mice, plasma; read-out: Terminal T1/2
Protocol: Twenty-one male C57BL/6J mice were dosed IP with 70 mg/kg PS-10, 0.2 ml/mouse formulated as 10% DMSO/20% water/70% of 25% (2-hydroxypropyl)-β-cyclodextrin for determination of PS-10 PK. Twenty-one female CD-1 mice were dosed IP with 20 mg/kg PS-8, 0.2 ml/mouse formulated as 5% ethanol and 95% of 0.1 M sodium bicarbonate pH 9.0 for determination of PS-8 PK. Animal (n=3) were sacrificed and whole blood was harvested for each time point. […]
MEASURED PROPERTY: half-life (h)
Provide the reading as a plain figure in h.

Give half-life for the following compound: O=S(=O)(c1ccc(O)cc1O)N1Cc2cc(O)cc(O)c2C1
2.68

----------
biological target: PDK4 (Homo sapiens, UniProt Q16654); assay: Assay for inhibition of PDK activity, PDK4; format: biochemical; design: made in house; conditions: presence of E2/E3BP core (+); read-out: IC50 for PDK4
Sequence (Q16654 whole entry): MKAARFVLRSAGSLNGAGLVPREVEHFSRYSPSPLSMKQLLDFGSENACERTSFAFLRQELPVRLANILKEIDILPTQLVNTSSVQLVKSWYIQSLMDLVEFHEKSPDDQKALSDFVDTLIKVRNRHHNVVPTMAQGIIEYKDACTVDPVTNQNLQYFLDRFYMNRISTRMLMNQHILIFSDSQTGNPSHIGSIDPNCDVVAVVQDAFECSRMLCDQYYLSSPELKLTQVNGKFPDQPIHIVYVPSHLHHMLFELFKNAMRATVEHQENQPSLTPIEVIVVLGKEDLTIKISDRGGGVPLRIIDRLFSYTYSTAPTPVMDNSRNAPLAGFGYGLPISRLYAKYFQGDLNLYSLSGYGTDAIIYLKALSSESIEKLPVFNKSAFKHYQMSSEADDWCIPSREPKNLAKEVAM
MEASURED PROPERTY: pIC50
Scale: negative log10 of molar concentration, which is what pIC50 denotes.

Give pIC50 for the following compound: O=S(=O)(c1ccc(O)cc1O)N1Cc2ccc(O)cc2C1
6.08

----------
target: PDK2 (Homo sapiens); experiment: Assay for inhibition of PDK activity, PDK2; type: biochemical; set-up: made in house; conditions: Table 1; inhibitor 31.6 nM to 1 mM; read-out: IC50, μM for PDK2
# strict inequality: IC50 < 6 µM yields Fulfilled, everything else yields Not fulfilled

Is IC50 of O=S(=O)(c1ccc(O)cc1O)N1Cc2cc(O)cc(O)c2C1 strictly below 6 µM?
Fulfilled

Is IC50 of O=C(c1ccc(O)cc1O)N1Cc2ccccc2C1 strictly below 6 µM?
Fulfilled

Is IC50 of O=S(=O)(c1ccc(O)cc1O)N1Cc2ccc(O)cc2C1 strictly below 6 µM?
Fulfilled

Is IC50 of O=C(c1cc(Br)c(O)cc1O)N1Cc2ccccc2C1 strictly below 6 µM?
Not fulfilled

Is IC50 of O=S(=O)(c1ccc(O)cc1O)N1Cc2ccccc2C1 strictly below 6 µM?
Fulfilled

Is IC50 of C[C@@H]1C[C@H]2O[C@@H]2/C=C\C=C\C(=O)Cc2c(Cl)c(O)cc(O)c2C(=O)O1 [Radicicol, radicicol, reference compound] strictly below 6 µM?
Not fulfilled

----------
test: Pharmacokinetic studies in mice after IP dosing; assay type: in vivo; settings: mouse; 20 mg/kg IP, female CD-1 mice, plasma
MEASURED PROPERTY: Tmax (min)
Provide the reading as a plain figure in min.

Give Tmax for the following compound: O=S(=O)(c1ccc(O)cc1O)N1Cc2ccc(O)cc2C1
10

----------
experiment: Pharmacokinetic studies in mice after IP dosing; assay type: in vivo; details: mouse; 20 mg/kg IP, female CD-1 mice, plasma
MEASURED PROPERTY: AUC(0-t) (ng·h/mL)
Provide the reading as a plain figure in ng·h/mL.

Give AUC(0-t) for the following molecule: O=S(=O)(c1ccc(O)cc1O)N1Cc2ccc(O)cc2C1
5170

----------
IC50 overview
molecular target: human PDK1 (Homo sapiens, UniProt Q15118); construct: made in house; assay: Assay for inhibition of PDK activity, PDK1; type: biochemical; conditions: absence of E2/E3BP core (−)
Sequence (Q15118 29-436): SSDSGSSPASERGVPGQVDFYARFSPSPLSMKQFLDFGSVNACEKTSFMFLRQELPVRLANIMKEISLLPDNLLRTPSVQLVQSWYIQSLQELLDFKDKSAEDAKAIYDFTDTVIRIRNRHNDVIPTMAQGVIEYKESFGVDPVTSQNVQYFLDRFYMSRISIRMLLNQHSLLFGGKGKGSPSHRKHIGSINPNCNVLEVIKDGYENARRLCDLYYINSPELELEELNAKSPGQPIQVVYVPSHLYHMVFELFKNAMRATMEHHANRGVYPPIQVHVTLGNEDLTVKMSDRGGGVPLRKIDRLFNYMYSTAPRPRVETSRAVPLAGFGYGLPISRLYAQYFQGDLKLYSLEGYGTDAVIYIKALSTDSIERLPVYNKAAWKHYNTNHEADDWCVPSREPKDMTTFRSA

LINE NOTATION: O=S(=O)(c1ccc(O)cc1O)N1Cc2cc(O)cc(O)c2C1
IC50: 2070 nM

Lab note: next compound to report on.
Write IC50 of O=S(=O)(c1ccc(O)cc1O)N1Cc2ccc(O)cc2C1 ; system used: human PDK1 (Homo sapiens, UniProt Q15118)
2500 nM

----------
half-life overview
test: Half-life in vitro in hepatic S9 fractions; type: in vitro ADME; conditions: data not shown

LINE NOTATION: O=S(=O)(c1ccc(O)cc1O)N1Cc2cc(O)cc(O)c2C1
half-life: > 240 min

Give half-life for the following compound: O=S(=O)(c1ccc(O)cc1O)N1Cc2ccc(O)cc2C1
> 240 min

----------
molecular target: UniProt:Q15119; assay: Assay for inhibition of PDK activity, PDK2; type: biochemical; set-up: made in house; details: presence of E2/E3BP core (+); read-out: IC50 for PDK2
MEASURED PROPERTY: pIC50
Scale: negative log10 of molar concentration, which is what pIC50 denotes.

Give pIC50 for the following molecule: O=S(=O)(c1ccc(O)cc1O)N1Cc2ccc(O)cc2C1 [PS8]
6.15

----------
Kd overview
target: PDK2 (Homo sapiens); assay: Isothermal titration calorimetry (ITC), binding to PDK2; parameters: made in house
Provide the reading as a plain figure in nM.

Known results for compounds:
COMPOUND: O=S(=O)(c1ccc(O)cc1O)N1Cc2ccc(NC3CCN(CC(O)CO)CC3)cc2C1 (centres unmarked)
MEASURED PROPERTY: Kd
UNITS TEXT: nM
VALUE OBSERVED: 188
//
COMPOUND: O=C(C1=C[C@@H](O)[C@@H](O)[C@H](O)C1)N1CCC(Nc2ccc3c(c2)CN(S(=O)(=O)c2ccc(O)cc2O)C3)CC1
MEASURED PROPERTY: Kd
UNITS TEXT: nM
VALUE OBSERVED: 403
//
COMPOUND: O=C(O)CCCCN1CCC(Nc2ccc3c(c2)CN(S(=O)(=O)c2ccc(O)cc2O)C3)CC1
MEASURED PROPERTY: Kd
UNITS TEXT: nM
VALUE OBSERVED: 1400

Write Kd of O=S(=O)(c1ccc(O)cc1O)N1Cc2ccc(NC3CCNCC3)cc2C1 ; system used: PDK2 (Homo sapiens)
143

Write Kd of O=C(C1C[C@@H](O)C(O)[C@H](O)C1)N1CCC(Nc2ccc3c(c2)CN(S(=O)(=O)c2ccc(O)cc2O)C3)CC1 (some centres unmarked) ; system used: PDK2 (Homo sapiens)
338
